Please go through the items and note down their GI50.
# Test system: SNB-75
# ASSAY NOTES: NCI tumour cell line growth inhibition, 48 h
Active and inactive are the calls of the source. Rule as the data show it: active = GI50 up to about 1.1 µM and inactive = higher.

Answered cases to consult:
{"columns": ["COMPOUND", "GI50"],
 "data": [
  ["N=c1c2c(=S)n(-c3ccccc3)c(=S)n(-c3ccccc3)c2nc(SCCN2CCCC2)n1-c1ccccc1", "2.66 µM (inactive)"],
  ["O=NC1c2cccc3cccc(c23)C1N=O (stereo not drawn)", "9.79 µM (inactive)"],
  ["CC1=N/C(=C\\c2ccc(/C=C3/N=C(C)OC3=O)cc2)C(=O)O1", "> 100 µM (inactive)"],
  ["N#Cc1cccc(/C=N/N/C(N)=N/O)c1", "14.8 µM (inactive)"]
]}

Take each entry in turn and give its GI50.
1. N#Cc1ccc(C2ON=C(c3ccccc3)N2C23CC4CC(CC(C4)C2)C3)cc1 (stereo not drawn)
2. Nc1ccc(-c2nc3cc(F)ccc3s2)cc1I

["> 10 µM (inactive)", "16.1 µM (inactive)"]

Dear colleague, could you send me GI50 for each of the items below? Thanks.
1. CN(C)CCNC(=O)c1cccc(C(=O)Nc2ccccc2)c1[N+](=O)[O-]
2. CC(C)(C)N1CSC(=S)N(Cc2ccco2)C1
3. Nc1ccn(CC(O)c2cc3ccccc3[nH]2)c(=O)n1 (stereo not drawn)

1: 34.8 µM (inactive); 2: 12.8 µM (inactive); 3: > 100 µM (inactive)

# per-item lookup of GI50; items listed below
1. CN(NC(=O)/C(=C/C=C/c1ccccc1)NC(=O)c1ccccc1)C1=C(Cl)C(=O)[N+](c2ccccc2)=CC1
2. C=CCC(CCC(C)=O)(C(=O)OCC)C(=O)OCC
3. O=[N+]([O-])/C(C(Cl)=C(Cl)Cl)=C1/OCCS1

["21.6 µM (inactive)", "> 100 µM (inactive)", "13.9 µM (inactive)"]

Lab note: Cn1cnc([N+](=O)[O-])c1Sc1nncc2[nH]cnc12 gave GI50 of > 100 µM (inactive)

Entry source: ChEMBL document CHEMBL1201862
